Entry source: PubChem BioAssay (NCI)

Provide the reported TGI of each item.
system: HOP-92 NSCLC; test: NCI tumour cell line growth inhibition, 48 h

Given the compound CCOC(=O)c1nc2ccc(C(F)(F)F)cc2nc1Oc1cc(OC)cc(OC)c1 , what is its reported TGI? > 100 µM

Given the compound CCOc1ccccc1N=Nc1c(C)[nH]n(-c2nc(-c3ccccc3)cs2)c1=O , what is its reported TGI? > 96.8 µM

Given the compound COC(=O)C(Cc1ccccc1)NP(=O)(O)OCC1OC(n2cc(F)c(=O)[nH]c2=O)CC1O (configuration not stated) , what is its reported TGI? > 55.2 µM

Given the compound Nc1[nH]nc2nc(-c3cccs3)cc(C(F)(F)F)c12 , what is its reported TGI? > 25 µM

Given the compound COC(=O)C1=C(c2cc(OC)c(OC)c(OC)c2)OC(c2ccc(OC)c(OC)c2)C1 (configuration not stated) , what is its reported TGI? > 100 µM

Given the compound CCN(C(=S)N[C@H](C(=O)N[C@@H](C)C(=O)OC)C(C)C)c1ccccc1 , what is its reported TGI? > 100 µM

Given the compound COc1cc(C2c3cc4c(cc3OC(NNC(N)=O)C2C)OCO4)cc(OC)c1O (configuration not stated) , what is its reported TGI? > 90.2 µM

Given the compound C=C1C(=O)OC2C1C(OC(=O)/C(C)=C/C)CC(O)(CCl)C1C(O)C3OC3(C)C21O (configuration not stated) , what is its reported TGI? > 50 µM

Given the compound CC1(C)CC(C)(C)C1=NNC(N)=O , what is its reported TGI? > 100 µM

Given the compound COc1cccc(-n2ncc3c(N/N=C/c4ccncc4)ncnc32)c1 , what is its reported TGI? > 25 µM

Given the compound COC(=O)[C@H]1CO[C@H]2C/C(C)=C/CC/C(C)=C/CC[C@@]3(C)O[C@@H]3C[C@H]21 , what is its reported TGI? > 50 µM

Given the compound CN1CCN(CCCBr)CC1 , what is its reported TGI? > 100 µM
